- System: MCF7
- Procedure Summary: cells
- Recorded Conditions: Homo sapiens, MCF7, 72 h
- Description: Cytotoxicity against human MCF7 cells assessed as reduction in cell viability after 72 hrs by MTT assay
pIC50: −log10 of the molar value.
Reported Metric: pIC50

>>> observed_value("O=c1[nH]cc(F)c(=O)[nH]1 [FLUOROURACIL]")
4.64
>>> observed_value("CC1=C\\C[C@H](O)/C=C/C(C)=C/[C@@H](NC(=O)[C@H](C)O)[C@]2(C)C(=O)O[C@H](C[C@H](O)\\C=C\\1)[C@@H](C)C2=O")
4.12
>>> observed_value("CC1=C\\C[C@H](O)/C=C/C(C)=C/[C@@H](NC(=O)[C@H](C)O)[C@@H](C)C(=O)/C(C)=C/C[C@H](O)\\C=C\\1")
4.37
>>> observed_value("CC(=O)O[C@@H]1/C=C/C(C)=C/C[C@H](O)/C=C/C(C)=C/[C@@H](NC(=O)[C@H](C)O)[C@]2(C)C(=O)O[C@H](C1)[C@@H](C)C2=O")
4.33
